Entries annotated with measured percent viability
Tested on: MCF10A
Experiment: percent viability (nuclei count relative to siNT); higher = more viable cells
Settings: 20 nM; 72 h
Record the value in %, omitting the unit from your answer.

RESIDUE SEQUENCE: UUACAGUUGUUCAACCAGUUACU [hsa-miR-582-5p]
TARGET OR TEST SYSTEM: MCF10A
UNIT INFO: %
NUMERIC READOUT: 165
--
RESIDUE SEQUENCE: UCAAUAAAUGUCUGUUGAAUU [hsa-miR-95-5p]
TARGET OR TEST SYSTEM: MCF10A
UNIT INFO: %
NUMERIC READOUT: 101
--
RESIDUE SEQUENCE: ACGGGCAGGGCAGUGCACCCUG [hsa-miR-7112-5p]
TARGET OR TEST SYSTEM: MCF10A
UNIT INFO: %
NUMERIC READOUT: 31.2
--
RESIDUE SEQUENCE: AGCUGUAAUUAGUCAGUUUUCU [hsa-miR-1537-5p]
TARGET OR TEST SYSTEM: MCF10A
UNIT INFO: %
NUMERIC READOUT: 117
--
RESIDUE SEQUENCE: AGAGGCUUUGUGCGGAUACGGGG [hsa-miR-3188]
TARGET OR TEST SYSTEM: MCF10A
UNIT INFO: %
NUMERIC READOUT: 29.7

# input Determine reported percent viability for AAAGUGCUGCGACAUUUGAGCGU [hsa-miR-372] ; test system: MCF10A.
# output 64.2

# input Determine reported percent viability for CAGAGGGAAUACAGAGGGCAAU [hsa-miR-6873-5p] ; test system: MCF10A.
# output 36.7

----------
System: MCF10A
Assay: 5+ nucleoli phenotype percent effect (relative to siNT 0% and siKIF11 100%); higher = more cells with five or more nucleoli
Details: 20 nM; 72 h
Classify by measured 5+ nucleoli phenotype percent effect: True if it is equal to or exceeds 30%, False if it is smaller.

Example entries and their recorded answers appear below.
RESIDUE SEQUENCE: AACUGAACCAGGAGUGAGCUUCG [hsa-miR-4724-5p]
TARGET OR TEST SYSTEM: MCF10A
GROUP: False

RESIDUE SEQUENCE: UGGAGAGAGAAAAGAGACAGAAG [hsa-miR-4644]
TARGET OR TEST SYSTEM: MCF10A
GROUP: True

RESIDUE SEQUENCE: UGGACGGAGAACUGAUAAGGGU [hsa-miR-184]
TARGET OR TEST SYSTEM: MCF10A
GROUP: True

RESIDUE SEQUENCE: AAGUUCUGUUAUACACUCAGGC [hsa-miR-148b-5p]
TARGET OR TEST SYSTEM: MCF10A
GROUP: False

# input Record ACGGGUUAGGCUCUUGGGAGCU [hsa-miR-125b-1-3p] ; criterion: 5+ nucleoli phenotype percent effect no lower than 30%. Met?
# output False

# input Record UCUGCCCCCUCCGCUGCUGCCA [hsa-miR-1913] ; criterion: 5+ nucleoli phenotype percent effect no lower than 30%. Met?
# output True

# input Record UAAUUGCUUCCAUGUUU [hsa-miR-302f] ; criterion: 5+ nucleoli phenotype percent effect no lower than 30%. Met?
# output False

----------
System: MCF10A
Test: 5+ nucleoli phenotype percent effect (relative to siNT 0% and siKIF11 100%); higher = more cells with five or more nucleoli
Settings: 20 nM; 72 h
Entries annotated with measured 5+ nucleoli phenotype percent effect
Record the value in %, omitting the unit from your answer.

Solved entries (count: 7):
RESIDUE SEQUENCE: UUAGACCUAGUACACGUCCUU [hsa-miR-3684]
TARGET OR TEST SYSTEM: MCF10A
5+ nucleoli phenotype percent effect [%]: 16.1
--
RESIDUE SEQUENCE: UAUAAAAUGAGGGCAGUAAGAC [hsa-miR-3163]
TARGET OR TEST SYSTEM: MCF10A
5+ nucleoli phenotype percent effect [%]: 30.5
--
RESIDUE SEQUENCE: UCUCAGGAGUAAAGACAGAGUU [hsa-miR-3664-3p]
TARGET OR TEST SYSTEM: MCF10A
5+ nucleoli phenotype percent effect [%]: 17.2
--
RESIDUE SEQUENCE: UCGGCUCUCUCCCUCACCCUAG [hsa-miR-6741-3p]
TARGET OR TEST SYSTEM: MCF10A
5+ nucleoli phenotype percent effect [%]: -4.11
--
RESIDUE SEQUENCE: UUCAUUUGCCUCCCAGCCUACA [hsa-miR-664b-3p]
TARGET OR TEST SYSTEM: MCF10A
5+ nucleoli phenotype percent effect [%]: -29.2
--
RESIDUE SEQUENCE: AGGACUGAUCCUCUCGGGCAGG [hsa-miR-4740-5p]
TARGET OR TEST SYSTEM: MCF10A
5+ nucleoli phenotype percent effect [%]: -14.8
--
RESIDUE SEQUENCE: UCAUUAUAUGUAUGAUCUGGAC [hsa-miR-4528]
TARGET OR TEST SYSTEM: MCF10A
5+ nucleoli phenotype percent effect [%]: -2.39

Shift focus to the following entry.
# input Dear colleague, please send me the reported 5+ nucleoli phenotype percent effect for GAUCUCACUUUGUUGCCCAGG [hsa-miR-1285-5p] when you can.
# output 15.8

----------
System: MCF10A
Experiment: percent viability (nuclei count relative to siNT); higher = more viable cells
Settings: 20 nM; 72 h
MEASUREMENT NAME: percent viability (%)
Record the value in %, omitting the unit from your answer.

Solved entries (count: 4):
RESIDUE SEQUENCE: CUUCUGAUCAAGAUUUGUGGUG [hsa-miR-4762-3p]
UNIT INFO: %
percent viability: 30.5

RESIDUE SEQUENCE: UUUUGCAUGACCCUGGGAGUAGG [hsa-miR-3680-3p]
UNIT INFO: %
percent viability: 51

RESIDUE SEQUENCE: AGUGGGGUGGGACCCAGCUGUU [hsa-miR-6742-5p]
UNIT INFO: %
percent viability: 21.8

RESIDUE SEQUENCE: UGUUUGUUGUAAGGAUCGUUGU [hsa-miR-8068]
UNIT INFO: %
percent viability: 34.1

# input Dear colleague, please send me the reported percent viability for CCUGGGGACAGGGGAUUGGGGCAG [hsa-miR-8089] when you can.
# output 93.2

----------
Entries annotated with measured one-nucleolus phenotype percent effect
Test system: MCF10A
Assay: one-nucleolus phenotype percent effect (relative to siNT 0% and siNOL11 100%); higher = more cells with one nucleolus (ribosome biogenesis inhibition)
Settings: 20 nM; 72 h
Record the value in %, omitting the unit from your answer.

Solved entries (count: 3):
RESIDUE SEQUENCE: UCAAAACUGAGGGGCAUUUUCU [hsa-miR-1323]
MEASUREMENT NAME: one-nucleolus phenotype percent effect
UNIT INFO: %
NUMERIC READOUT: -19.4
--
RESIDUE SEQUENCE: UCUGAGGUGGAACAGCAGC [hsa-miR-7162-3p]
MEASUREMENT NAME: one-nucleolus phenotype percent effect
UNIT INFO: %
NUMERIC READOUT: 19.5
--
RESIDUE SEQUENCE: CAGGUCACGUCUCUGCAGUUAC [hsa-miR-370-5p]
MEASUREMENT NAME: one-nucleolus phenotype percent effect
UNIT INFO: %
NUMERIC READOUT: -14.6

Shift focus to the following entry.
# input Dear colleague, please send me the reported one-nucleolus phenotype percent effect for AAGGGACAGGGAGGGUCGUGG [hsa-miR-7845-5p] when you can.
# output -13.3

----------
System: MCF10A
Experiment: one-nucleolus phenotype percent effect (relative to siNT 0% and siNOL11 100%); higher = more cells with one nucleolus (ribosome biogenesis inhibition)
Settings: 20 nM; 72 h
MEASUREMENT NAME: one-nucleolus phenotype percent effect (%)
Record the value in %, omitting the unit from your answer.

Solved entries (count: 2):
RESIDUE SEQUENCE: CAACUAGACUGUGAGCUUCUAG [hsa-miR-708-3p]
UNIT INFO: %
NUMERIC READOUT: -31

RESIDUE SEQUENCE: AACUCUAGCCUGAGCAACAG [hsa-miR-5684]
UNIT INFO: %
NUMERIC READOUT: 2.62

Shift focus to the following entry.
# input Dear colleague, please send me the reported one-nucleolus phenotype percent effect for AGGGAGGGUGUGGUAUGGAUGU [hsa-miR-6883-5p] when you can.
# output 8.82

----------
Test system: MCF10A
Assay: 5+ nucleoli phenotype percent effect (relative to siNT 0% and siKIF11 100%); higher = more cells with five or more nucleoli
Conditions: 20 nM; 72 h
MEASUREMENT NAME: 5+ nucleoli phenotype percent effect (%)
Record the value in %, omitting the unit from your answer.

RESIDUE SEQUENCE: GUGAGGGACUGGGAUUUGUGG [hsa-miR-6834-5p]
5+ nucleoli phenotype percent effect [%]: 23.5
//
RESIDUE SEQUENCE: UAGGGGAAAAGUCCUGAUCCGG [hsa-miR-6783-5p]
5+ nucleoli phenotype percent effect [%]: 18.2
//
RESIDUE SEQUENCE: UGCCCUUAAAGGUGAACCCAGU [hsa-miR-938]
5+ nucleoli phenotype percent effect [%]: 6.12
//
RESIDUE SEQUENCE: CUCUAGAGGGAAGCACUUUCUC [hsa-miR-518f-5p]
5+ nucleoli phenotype percent effect [%]: 3.35
//
RESIDUE SEQUENCE: AGUAUUCUGUACCAGGGAAGGU [hsa-miR-630]
5+ nucleoli phenotype percent effect [%]: 49.7
//
RESIDUE SEQUENCE: AACGGGAAUGCAGGCUGUAUCU [hsa-miR-4681]
5+ nucleoli phenotype percent effect [%]: 46

# input Dear colleague, please send me the reported 5+ nucleoli phenotype percent effect for CAAAGCGCUUCCCUUUGGAGC [hsa-miR-518d-3p] when you can.
# output -31.6

# input Dear colleague, please send me the reported 5+ nucleoli phenotype percent effect for CUCACUCUCAGUCCCUCCCU [hsa-miR-6794-3p] when you can.
# output 27.6

# input Dear colleague, please send me the reported 5+ nucleoli phenotype percent effect for UGCCAACCGUCAGAGCCCAGA [hsa-miR-5189-3p] when you can.
# output -12

# input Dear colleague, please send me the reported 5+ nucleoli phenotype percent effect for UUAGCUUAAGGAGUACCAGAUC [hsa-miR-5579-3p] when you can.
# output 7.97

# input Dear colleague, please send me the reported 5+ nucleoli phenotype percent effect for AUGAAGCCUUCUCUGCCUUACG [hsa-miR-7843-3p] when you can.
# output -32.5
